- target-system: αvβ8 integrin (purified) (UniProt P06756 31-992; P26012 43-684)
- Sequence (P06756 31-992, chain 1 of 2): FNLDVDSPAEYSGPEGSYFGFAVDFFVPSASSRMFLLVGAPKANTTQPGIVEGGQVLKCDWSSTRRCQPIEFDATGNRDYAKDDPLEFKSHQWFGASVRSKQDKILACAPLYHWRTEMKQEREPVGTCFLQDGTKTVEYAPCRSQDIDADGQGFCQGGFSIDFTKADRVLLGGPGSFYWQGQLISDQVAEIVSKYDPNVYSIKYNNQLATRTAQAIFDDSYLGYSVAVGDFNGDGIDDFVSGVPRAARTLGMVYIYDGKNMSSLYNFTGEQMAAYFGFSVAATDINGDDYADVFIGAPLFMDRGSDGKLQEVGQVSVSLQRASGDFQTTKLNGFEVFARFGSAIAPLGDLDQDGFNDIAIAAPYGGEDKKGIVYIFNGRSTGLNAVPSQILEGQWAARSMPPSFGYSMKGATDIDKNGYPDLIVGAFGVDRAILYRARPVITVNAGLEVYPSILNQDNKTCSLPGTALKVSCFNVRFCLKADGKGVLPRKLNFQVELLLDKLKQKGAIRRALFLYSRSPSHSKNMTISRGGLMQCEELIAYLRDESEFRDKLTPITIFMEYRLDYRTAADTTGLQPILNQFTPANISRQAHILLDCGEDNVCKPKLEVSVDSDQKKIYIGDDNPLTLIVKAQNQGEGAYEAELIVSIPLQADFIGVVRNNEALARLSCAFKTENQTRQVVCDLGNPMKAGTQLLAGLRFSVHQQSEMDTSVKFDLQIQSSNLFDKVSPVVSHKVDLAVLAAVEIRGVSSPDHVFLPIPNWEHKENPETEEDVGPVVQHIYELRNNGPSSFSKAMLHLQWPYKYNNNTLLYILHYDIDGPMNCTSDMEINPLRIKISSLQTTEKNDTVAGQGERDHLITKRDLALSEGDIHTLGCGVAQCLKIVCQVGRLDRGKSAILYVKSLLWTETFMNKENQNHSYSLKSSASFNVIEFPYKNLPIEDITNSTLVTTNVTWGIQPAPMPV
- Sequence (P26012 43-684, chain 2 of 2): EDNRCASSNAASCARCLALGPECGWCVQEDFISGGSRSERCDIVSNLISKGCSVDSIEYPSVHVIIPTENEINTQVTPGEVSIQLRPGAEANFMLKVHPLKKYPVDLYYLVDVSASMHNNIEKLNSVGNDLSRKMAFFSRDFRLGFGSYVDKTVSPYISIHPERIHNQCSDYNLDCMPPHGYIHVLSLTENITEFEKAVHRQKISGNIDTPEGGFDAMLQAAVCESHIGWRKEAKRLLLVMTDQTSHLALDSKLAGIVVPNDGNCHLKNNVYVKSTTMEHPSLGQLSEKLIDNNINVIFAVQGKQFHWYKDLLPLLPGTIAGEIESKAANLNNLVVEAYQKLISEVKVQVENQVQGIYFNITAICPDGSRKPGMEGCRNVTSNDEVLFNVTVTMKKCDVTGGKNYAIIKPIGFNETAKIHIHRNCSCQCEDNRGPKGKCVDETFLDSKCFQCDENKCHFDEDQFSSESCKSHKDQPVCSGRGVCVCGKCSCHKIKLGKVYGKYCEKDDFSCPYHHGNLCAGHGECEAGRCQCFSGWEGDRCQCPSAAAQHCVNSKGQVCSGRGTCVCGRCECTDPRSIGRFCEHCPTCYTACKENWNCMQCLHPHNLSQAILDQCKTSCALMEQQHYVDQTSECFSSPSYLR
- measurement-description: competitive binding ELISA, purified integrin; competitor biotinylated natural ligand
*: point of attachment. Benzoyl(4-F) = O=C(c1ccc(F)cc1)*
The following binders are shown together with reported IC50 values.
Give the value in µM but do not write µM after it.

Use the examples below as a reference point.
| binder | number |
| --- | --- |
| H-RGDLRELAK(Benzoyl(4-F))-NH2 (SMILES CC(C)C[C@H](NC(=O)[C@H](CCC(=O)O)NC(=O)[C@H](CCCNC(=N)N)NC(=O)[C@H](CC(C)C)NC(=O)[C@H](CC(=O)O)NC(=O)CNC(=O)[C@@H](N)CCCNC(=N)N)C(=O)N[C@@H](C)C(=O)N[C@@H](CCCCNC(=O)c1ccc(F)cc1)C(N)=O, free N-terminus; also called Peptide 5) [ST1-61, …(FB)] | 2.6 |
| H-RGDLADLRK(Benzoyl(4-F))-NH2 (free N-terminus; also called Peptide 3) [ST1-60, …(FB)] | 0.16 |
| H-VGDLTYLKK(4‑fluorobenzoyl)-NH2 (free N-terminus; also called Peptide 1) [ST1-62, …(FB)] | 5.3 |

Lab note: next binder to report on.
Look up IC50: H-RGDLMKLAK(Benzoyl(4-F))-NH2 (SMILES CSCC[C@H](NC(=O)[C@H](CC(C)C)NC(=O)[C@H](CC(=O)O)NC(=O)CNC(=O)[C@@H](N)CCCNC(=N)N)C(=O)N[C@@H](CCCCN)C(=O)N[C@@H](CC(C)C)C(=O)N[C@@H](C)C(=O)N[C@@H](CCCCNC(=O)c1ccc(F)cc1)C(N)=O, free N-terminus; also called Peptide 2) [ST1-59, …(FB)]
2.59
